Biological target: DNA cytosine-5 methyltransferase (DCMTase, Dnmt1) (Mus musculus, UniProt P13864 P13864:1-1620)
Sequence (P13864 whole entry, one chain of several): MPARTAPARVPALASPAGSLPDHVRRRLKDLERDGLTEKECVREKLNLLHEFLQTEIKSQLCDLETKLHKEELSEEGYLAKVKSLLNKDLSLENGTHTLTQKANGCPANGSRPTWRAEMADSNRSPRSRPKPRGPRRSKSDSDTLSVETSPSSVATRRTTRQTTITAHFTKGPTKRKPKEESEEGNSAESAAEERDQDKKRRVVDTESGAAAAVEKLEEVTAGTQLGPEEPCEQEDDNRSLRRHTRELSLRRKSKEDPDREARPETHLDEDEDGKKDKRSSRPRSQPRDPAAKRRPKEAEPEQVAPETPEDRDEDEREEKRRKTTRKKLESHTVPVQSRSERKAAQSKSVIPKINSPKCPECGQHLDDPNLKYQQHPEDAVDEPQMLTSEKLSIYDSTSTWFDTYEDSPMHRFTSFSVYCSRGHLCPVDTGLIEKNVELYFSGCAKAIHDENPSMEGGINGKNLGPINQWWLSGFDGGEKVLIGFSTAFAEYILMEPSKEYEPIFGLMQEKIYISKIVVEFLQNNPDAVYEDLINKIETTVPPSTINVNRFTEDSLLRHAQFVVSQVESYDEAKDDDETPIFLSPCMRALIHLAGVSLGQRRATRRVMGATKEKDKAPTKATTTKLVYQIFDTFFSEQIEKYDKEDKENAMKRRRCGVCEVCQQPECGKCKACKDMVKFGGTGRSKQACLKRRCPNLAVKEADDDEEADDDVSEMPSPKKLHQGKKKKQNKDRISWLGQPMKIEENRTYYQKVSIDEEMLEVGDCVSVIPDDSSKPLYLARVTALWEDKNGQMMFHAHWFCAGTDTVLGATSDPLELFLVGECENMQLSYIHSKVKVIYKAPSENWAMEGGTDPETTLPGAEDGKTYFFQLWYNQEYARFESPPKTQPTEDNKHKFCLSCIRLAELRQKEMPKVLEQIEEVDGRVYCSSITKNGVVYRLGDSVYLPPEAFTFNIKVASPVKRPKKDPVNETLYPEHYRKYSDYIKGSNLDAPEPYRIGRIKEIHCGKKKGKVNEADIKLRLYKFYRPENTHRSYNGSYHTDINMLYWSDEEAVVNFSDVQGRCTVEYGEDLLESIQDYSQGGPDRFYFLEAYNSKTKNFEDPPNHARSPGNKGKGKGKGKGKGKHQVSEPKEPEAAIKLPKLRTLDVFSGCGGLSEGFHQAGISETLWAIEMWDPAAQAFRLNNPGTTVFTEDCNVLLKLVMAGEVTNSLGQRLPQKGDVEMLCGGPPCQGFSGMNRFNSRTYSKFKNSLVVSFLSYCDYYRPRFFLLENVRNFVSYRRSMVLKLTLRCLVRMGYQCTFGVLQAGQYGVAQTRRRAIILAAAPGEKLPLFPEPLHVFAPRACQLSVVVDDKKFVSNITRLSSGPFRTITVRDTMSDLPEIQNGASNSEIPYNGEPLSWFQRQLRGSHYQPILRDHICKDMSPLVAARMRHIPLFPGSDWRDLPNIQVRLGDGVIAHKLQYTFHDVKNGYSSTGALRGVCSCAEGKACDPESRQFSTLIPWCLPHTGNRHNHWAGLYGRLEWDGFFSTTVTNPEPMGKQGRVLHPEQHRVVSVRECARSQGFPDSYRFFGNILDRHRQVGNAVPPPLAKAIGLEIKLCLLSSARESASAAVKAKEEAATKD
Test: inhibition; Kii, uncompetitive with poly(dIdC:dIdC); 25 +/- 10 nM competitive with AdoMet; calculated KI 2.5 nM for DCMTase:poly(dIdC:dIdC) complex; Tris pH 8.0, 10 mM EDTA
Details: tags: none; purified from mouse erythroleukemia (MEL) cells
Readout kind: Ki
Answer as a quantity: numeral, then unit.

Sample CTGGATCCTTGCCCCGCCCCTTGAATTCCC (ssDNA, 5mC at position 15 (central CpG)) [GC-box bMET] ; Ki observed: 20 nM
